target: T1, postfusion RSV F ectodomain, subtype B (respiratory syncytial virus subtype B); assay: BLI, IgG on sensor
T1 construct: extracellular domain; also called Postfusion subtype B
T1 sequence (P13843 26-109, chain 1 of 2): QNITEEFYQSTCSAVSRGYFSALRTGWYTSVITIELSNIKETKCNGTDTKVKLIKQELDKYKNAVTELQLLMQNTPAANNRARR
T1 sequence (P13843 147-513, chain 2 of 2): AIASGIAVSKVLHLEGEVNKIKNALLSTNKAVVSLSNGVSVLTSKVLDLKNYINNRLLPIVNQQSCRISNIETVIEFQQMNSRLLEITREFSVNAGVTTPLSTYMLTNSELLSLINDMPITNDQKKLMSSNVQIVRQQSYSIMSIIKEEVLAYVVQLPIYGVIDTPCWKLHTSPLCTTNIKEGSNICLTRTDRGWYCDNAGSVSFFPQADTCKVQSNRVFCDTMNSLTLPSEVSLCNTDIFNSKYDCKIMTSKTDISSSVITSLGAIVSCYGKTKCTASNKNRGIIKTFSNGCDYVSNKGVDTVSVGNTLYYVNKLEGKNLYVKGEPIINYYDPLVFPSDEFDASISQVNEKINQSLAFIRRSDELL
Entries whose Kd is below 0.3 nM take Fulfilled; entries at or above 0.3 nM take Not fulfilled.

Consider the following illustrative entries.
Binder	Class Name
ADI-15660 (antibody, V domains shown, IgG) VH: EVQLVQSGTEVKKPGESLKISCKASGYSSFPNWIGWVRQMPGKGLEYMGSIFPDDSNTRYSPSFRGLVAISADKSLRTAYLQWSSLKASDSAIYYCARGPFPHYFDSWGQGTLVTVSS VL: NFMLTQPHSVSESPGKTVTISCTRSSGSIARNYVQWYQQRPGSSPTTVIYEDDQRPPGVPDRFSGSIDSSSNSASLTISGLQTEDEADYYCQSYDPTNQNVFGTGTKLTVL	Fulfilled
ADI-15578 (antibody, V domains shown, IgG) VH: QVQLVQSGGGLVQPGGSLRLSCVGSGFTFSTYSMNWVRQAPGKGLEWVSHISSSSVTMYYADFVKGRFTISRDNAKNSLYLQMTSLRAEDTAVYYCARDAGPVWSGYYDYGMDVWGQGTTVTVSS VL: ETTLTQSPATLSLSPGERATLSCRASQSVSSLLAWYQQKPGQAPRLLIFDASKRATGIPARFSGSGSGTDFTLTISSLEPEDFAVYYCQQRYNWPPLTFGGGTKVEIK	Not fulfilled
ADI-15644 (antibody, V domains shown, IgG) VH: QVQLVQSGAEVKKPGSSVKVSCRTSGGTFSSFSISWVRQAPGQGLEWMGGIIPIFGTANYAKKFQGRVTITADESTDTAYMELRSLRSEDTAVYYCARDSPKISATEYYFDYWGQGTLVTVSS VL: DIQVTQSPSTLSASVGDRVTITCRASQSFTSWLAWYQQKPGKAPKLLIYKASTLDSGVPSRFSGSGSGTEFTLTINGLQPDDFATYYCQHYDSYSGTFGQGTRLEIK	Fulfilled
ADI-15603 (antibody, V domains shown, IgG) VH: QVQLVQSGGGLVQPGGSLRLSCAASGFTFGRHAMTWVRQAPGKGLEWVAGITATGDPTYYPDSVKGRFAVSRDNSRNTLYLQMDSLRVEDTALYYCARSWDDYGDLDWYFALWGRGTMVTVSS VL: EIVMTQSPAILSVSPGERATLSCRASQSVSSSLAWYQQKPGQAPRLLIYGASTRATGIPPRFSGSGSGTQFTLTISSLQSEDVAVYYCQQYSDWPPLTFGGGTKVEIK	Not fulfilled

Consider the record given below.
stdin: Could you please tell me whether Kd recorded for ADI-15005 (antibody, V domains shown, IgG; also called Antibody Number 124) VH: QVQLVESGPALVKPTQTLTLTCSFSGFSLTTRRMCVSWIRQTPGKALEWLARIDWDDDKDYSTSLKTRLTISKDTSKNQVVLTMTNMDPVDTATYYCARTHIYDSSGYYLYYFDYWGQGTLVTVSS VL: DIVLTQSPSSLSASIGDRVTITCRASQTIASYLNWYQQKPGKAPELLIYAATNLQSGVPSRFSGSGSGTDFTLTISSLRPEDFASYYCQQSYSSPWTFGQGTKVDIK is less than 0.3 nM?
stdout: Fulfilled
